Value source: PubChem BioAssay (NCI)

- Tested on: SK-MEL-5 melanoma
- procedure-summary: NCI tumour cell line growth inhibition, 48 h
Below, each of the compounds is paired with its reported TGI value.
observable: TGI (µM)

compound	observable	comparator	value
CCN(CC)S(=O)(=O)c1ccc2nc(NC(=O)OC)[nH]c2c1	TGI	>	100
C[Si](C)(C)/N=C1\N2C(=NC1(C(F)(F)F)C(F)(F)F)Sc1ccccc12	TGI	>	50
COc1ccc(C2C(C#N)=C(N)Oc3c2sc2c(C)cccc32)cc1 (stereo not given)	TGI	=	13.2
Brc1ccc2c(C3CN[C@@H](c4c[nH]c5cc(Br)ccc45)CN3)c[nH]c2c1 (stereo not given in full)	TGI	=	14.3
CC(C)CC(N=Cc1nc(-c2ccccc2)oc1O)C(=O)O (stereo not given)	TGI	>	100
Nc1nonc1-c1nc2cnccc2n1C1CCCCC1	TGI	>	19.2
C=C1C(=O)[C@@]23CC[C@@H]4[C@@]5(C)CCC[C@@]4(OC5=O)C2(C)CC[C@]1(OC)C3 (stereo not given in full)	TGI	=	3.39
COC(=O)/C(=C(\C)NC(C)=O)c1c(C(=O)OC)[nH]c2ccccc12	TGI	>	100
O=C(c1ccccc1)c1ccc2nc(-c3c(Cl)c(Cl)c(Cl)c(Cl)c3C(=O)N/N=C\C=C\c3ccccc3)[nH]c2c1	TGI	>	100
COC(=O)c1cc2cc(OC)c(OC)cc2cc(C(=O)OC)c1=O	TGI	>	100
Cc1cc2nc3c4cc(C=O)ccc4n(CCN(C)C)c3nc2cc1C	TGI	=	3.33
CC(=O)Nc1ccc(C2C(C(=O)Nc3ccccc3C)=C(C)NC(C)=C2C(=O)Nc2ccccc2C)cc1	TGI	>	100
Clc1nc(Cl)c2ncn(CC#CCn3cnc4c(Cl)nc(Cl)nc43)c2n1	TGI	=	23.3
Cc1nc2nn[nH]n2c(=O)c1CCO	TGI	>	100
COc1cc(C(=O)/C=C/c2c(C)n([O-])c3ccc(C(F)(F)F)cc3[n+]2=O)cc(OC)c1OC	TGI	>	57.3
O=S(=O)(c1ccccc1)[C@H]1[C@@H]2O[C@@H]2C[C@@H]1O	TGI	>	100
CCCCCCC[CH2][Sn]([Cl])([Cl])[CH2]CCCCCCC	TGI	=	19.4
CC(C)OC(=O)Nc1ccc(-c2nc(-c3cccc(OCCN4CCOCC4)c3)c(-c3ccnc(Br)c3)[nH]2)cc1	TGI	=	3.27
COC(=O)Cc1c([C@H]2[C@H](CC(=O)OC)c3ccccc3N2C(=O)C(F)(F)F)[nH]c2ccccc12	TGI	=	24.8
O=C(/C=C/c1cccc(O)c1)c1cccc(-n2cc(-c3ccc(Cl)cc3)[nH]c2=O)c1	TGI	=	3.36

---

- Test system: DMS 273 small cell lung
- procedure-summary: NCI tumour cell line growth inhibition, 48 h

molecule	TGI
N#CC(C#N)=c1ccc(=C2N3CCCC3CN2C23CC4CC(CC(C4)C2)C3)cc1 (stereo not drawn)	> 100 µM
O=c1c2ccccc2nc(-c2ccccc2Cl)n1NCC1(O)OCC(O)C(O)C1O (stereo not drawn)	> 100 µM
C[C@]12CCC3[C@@H](CC[C@@H]4c5nonc5CC[C@]34C)C1CCC2=O (stereo partly drawn)	47.1 µM
COC(=O)c1cc2cc(OC)c(OC)cc2cc(C(=O)OC)c1=O	> 100 µM
CC(C)CC(N=Cc1nc(-c2ccccc2)oc1O)C(=O)O (stereo not drawn)	> 100 µM
Cn1cnc2[nH]c(=O)[nH]c(=S)c21	> 100 µM
O=C1Cc2ccccc2N1/N=C\c1ccc([N+](=O)[O-])cc1	> 100 µM
O=C(C=P(c1ccccc1)(c1ccccc1)c1ccccc1)CC(=S)CC(=O)C=P(c1ccccc1)(c1ccccc1)c1ccccc1	10.1 µM
C[Si](C)(C)/N=C1\N2C(=NC1(C(F)(F)F)C(F)(F)F)Sc1ccccc12	> 50 µM
NC1CCCCC1N.O=NN1CCCCCC1(P(=O)([O-])[O-])P(=O)([O-])[O-].[Na+].[Pt+2]	> 100 µM
CCOc1ccc(NC(=O)CC2C(=O)Nc3ccccc3S2=O)cc1 (stereo not drawn)	> 100 µM
COc1ccc(C(=O)Cc2ccc(Cl)cc2)cc1OC	> 100 µM
CC(=O)Nc1ccc(C2C(C(=O)Nc3ccccc3C)=C(C)NC(C)=C2C(=O)Nc2ccccc2C)cc1	> 100 µM

---

Below, each of the molecules is paired with its reported GI50 value.
- Test system: 786-0 renal
- procedure-summary: NCI tumour cell line growth inhibition, 48 h

molecule	GI50
CCN(CC)CCNc1ccc(C)c2sc3ccccc3c(=O)c12 (tested in a mixture with another compound)	1.79 µM
Cn1cc(C2=C(c3cn(C)c4ccc(OCc5ccccc5)cc34)C(=O)NC2=O)c2ccccc21	> 25 µM
c1ccc(N2CCN(CN3CCN(c4ccccc4)C3)C2)cc1	> 100 µM
O=C1C=C(Nc2ccc([N+](=O)[O-])cc2)c2ccccc2C1=O	11.6 µM
CCCOC(=O)c1ccc2c(c1)[N+](=O)C(C(=O)c1ccccc1)=C(C(F)(F)F)[N+]2=O	1.83 µM

---

# collection of GI50 values tested on SK-MEL-28 melanoma
observable: GI50

compound	value
CC(=O)N1CCN([C@H]2CCC[C@@H](NC(=O)c3cc4c(F)ccc(C)c4[nH]3)C2)CC1	13.5 µM
CCCOC(=O)c1ccc2c(c1)[N+](=O)C(C(=O)c1ccccc1)=C(C(F)(F)F)[N+]2=O	1.85 µM
C/C(Cc1ccc(Cl)cc1)=C(\c1ccc(OCCN2CCCCCC2)cc1)c1ccc(OC(=O)c2ccccc2)cc1	1.15 µM
CC(=O)O[C@H]1C(=O)[C@@]2(C)[C@H]([C@H](OC(=O)c3ccccc3)[C@]3(O)C[C@H](OC(=O)[C@H](OC(=O)OC[C@@H]4COC(C)(C)O4)[C@@H](NC(=O)c4ccccc4)c4ccccc4)C(C)=C1C3(C)C)[C@]1(OC(C)=O)CO[C@@H]1C[C@@H]2O	> 33.3 µM
C=CCSSC1N=CNc2nc[nH]c21 (centres undefined)	27.2 µM
C=C(CN1CCc2ccccc2C1)c1ccc(CCC(=O)Nc2ccccc2N)cc1	42.6 µM
CC[C@H](Nc1cc(C)nc(N)n1)c1nc2cccc(NCc3ccc(C(=O)NO)cc3)c2c(=O)n1-c1ccccc1	1.83 µM
Clc1nc(Cl)c2ncn(CC#CCn3cnc4c(Cl)nc(Cl)nc43)c2n1	1.82 µM
O=C1C=C(Nc2ccc([N+](=O)[O-])cc2)c2ccccc2C1=O	3.75 µM

---

Below, each of the compounds is paired with its reported TGI value.
- Tested on: NCI-H460 lung
- procedure-summary: NCI tumour cell line growth inhibition, 48 h
observable: TGI

compound	value
CC(=O)c1ccc(NC(=O)/C(CC(=O)/C=C/c2ccccc2)=N/NC(N)=S)cc1	> 100 µM
COC(=O)C(C(=O)C(=O)Nc1nc(=S)[nH][nH]1)c1csc(N)n1 (stereo unspecified)	> 100 µM
CCOC(=O)C(CS)NC(=O)CCCCCCCC(=O)O (stereo unspecified)	> 100 µM
CCc1ccccc1N1C(=O)C(=O)C(c2nc3ccccc3s2)C(=O)C1=O	> 100 µM
COc1ccc(CN=C2N/C(=C\c3ccccc3Cl)C(=O)N2C)cc1	> 100 µM
O=C(N/N=C\c1c(O)ccc2ccccc12)c1ccncc1	> 6.82 µM
C[Si](C)(C)/N=C1\N2C(=NC1(C(F)(F)F)C(F)(F)F)Sc1ccccc12	> 50 µM
CN(C)CCCNc1c2c(nc3ccc(Cl)cc13)CCCC2	23.9 µM
COc1ccc(C(O)c2cc3c(N)c(C(=O)Nc4ccc(Br)cc4)sc3nc2C)cc1 (stereo unspecified)	4.66 µM
C/C(=N/NC(=S)N1CCCCC1)c1cccc(/C(C)=N\NC(=S)N2CCCCC2)n1	4.75 µM
O=C(CSCC(=O)N/N=C\c1cc(Cl)cc(Cl)c1O)N/N=C\c1cc(Cl)cc(Cl)c1O	42.8 µM
COc1ccc(-c2nnc(-c3nsc4ccccc34)o2)cc1	> 100 µM
CC(C)Sc1nncc(/C(N)=N/O)n1	> 100 µM
CN(C)c1nc(N(C)C)sc(=O)n1	> 100 µM
CC(=O)Nc1ccc(C2C(C(=O)Nc3ccccc3C)=C(C)NC(C)=C2C(=O)Nc2ccccc2C)cc1	> 100 µM
COC(=O)c1ccc2[nH]c(O)c(C(=Nc3ccc(N(C)C(=O)CN4CCN(C)CC4)cc3)c3ccc(OC)cc3)c2c1	3.76 µM
CCOP(=O)(OCC)/C(C#N)=C/c1coc2cc(C)cc(C)c2c1=O	> 100 µM
CCCCCCC[CH2][Sn]([Cl])([Cl])[CH2]CCCCCCC	26.8 µM
N#Cc1c(O)c(C=Nc2ccc(Cl)cc2)c(=O)n2c1[nH]c1ccccc12	> 100 µM
COc1cc(/C=C2\N=C(c3ccccc3)N(c3cc4cc(Sc5ccccc5)ccc4[nH]3)C2=O)cc(OC)c1OC	35.2 µM
COc1ccc(NCc2cc(OC)cc(OC)c2)cc1	> 84.6 µM
